- Tested on: MCF-7
- method-description: MTT cell proliferation assay, MCF-7
- Type: cell-based, human
- condition: Homo sapiens, MCF7, 72 h
measured-endpoint: IC50 (µM)
Dear colleague, please return just the value in µM, with no unit written.

Value of measured IC50 for the entry O=C(/C=C/CCc1ccc(O)cc1)/C=C/c1ccc(O)cc1 [DHDK] : 9.09

----------
- Tested on: MCF-7
- method-description: MTT cell proliferation assay, MCF-7
- Format: cell-based, human
- condition: MCF-7, breast; MTT, 72 h
measured-endpoint: IC50 (µM)
Record the value in µM, omitting the unit from your answer.

// N.N.[Cl][Pt][Cl] [Cisplatin, cis-platinum, reference compound] : IC50 value = 11.2

----------
- method-description: Tissue distribution
- Assay type: in vivo, SD rats
- condition: both, SD, rat, liver, iv, 14 mg/kg
measured-endpoint: AUC(0-inf) (ng·h/mL)
Your answer is read as ng·h/mL, so omit the unit and give the number.

The reported value for O=C(/C=C/CCc1ccc(O)cc1)/C=C/c1ccc(O)cc1 [DHDK] in terms of AUC(0-inf) is 2450

----------
- Test system: A375
- method-description: MTT cell proliferation assay, A375
- Format: cell-based, human
- condition: Homo sapiens, A-375, 72 h
measured-endpoint: pIC50
Scale for pIC50: -log10 of concentration given in mol/L; no unit attached.

For reference, reported pIC50 for O=C(/C=C/CCc1ccc(O)cc1)/C=C/c1ccc(O)cc1 stands at 5.18

----------
- method-description: Tissue distribution
- Type: in vivo, SD rats
- condition: Sprague-Dawley (SD), rat, spleen, iv, 14 mg/kg
measured-endpoint: AUC(0-inf) (ng·h/mL)
Give the number; ng·h/mL is assumed, so skip it.

get_value(item= O=C(/C=C/CCc1ccc(O)cc1)/C=C/c1ccc(O)cc1 , readout=AUC(0-inf)) returns 207

----------
- Tested on: SKOV3
- method-description: MTT cell proliferation assay, SKOV3
- Format: cell-based, human
- condition: Homo sapiens, SK-OV-3, 72 h
measured-endpoint: pIC50
Would you please state pIC50, meaning minus log10 of the concentration in mol/L, as a bare number?

Just so you know, measured pIC50 for O=C(/C=C/CCc1ccc(O)cc1)/C=C/c1ccc(O)cc1 [DHDK] came out at 5.02

----------
- Test system: HT-29
- method-description: MTT cell proliferation assay, HT-29
- Assay type: cell-based, human
- condition: Homo sapiens, HT-29, 72 h
measured-endpoint: IC50 (µM)
Give a bare numeral; the unit µM is implied.

Query O=C(/C=C/CCc1ccc(O)cc1)/C=C/c1ccc(O)cc1 on HT-29; IC50 returned: 4.79

----------
- method-description: Tissue distribution
- Assay type: in vivo, SD rats
- condition: Sprague-Dawley (SD), rat, kidney, iv, 14 mg/kg
measured-endpoint: AUC(0-inf) (ng·h/mL)
Write the value in ng·h/mL as a bare number.

What the record says about O=C(/C=C/CCc1ccc(O)cc1)/C=C/c1ccc(O)cc1 : AUC(0-inf) is 57.2

----------
- method-description: Tissue distribution
- Format: in vivo, SD rats
- condition: Sprague-Dawley (SD), rat, lung, iv, 14 mg/kg
measured-endpoint: AUC(0-inf) (ng·h/mL)
Write the answer as a number in ng·h/mL, unit excluded.

Summary for this compound, O=C(/C=C/CCc1ccc(O)cc1)/C=C/c1ccc(O)cc1 : AUC(0-inf) is 1630

FYI, the data here is from paper PMC9055608.
